Examples of sequences with documented shrunken log2 fold change follow.
Test system: Escherichia coli TOP10
Assay explanation: shrunken log2 fold change of peptide-encoding DNA abundance (4.5 h post-induction vs induction); higher = less antimicrobial activity (less host growth inhibition)
Condition set: time post-induction: 4.5 h; library: site-saturation at positions 5, 18, 19, 20

// below: answered sequences
I am curious: what shrunken log2 fold change value has been reported for RRIRARPPRLPRPRPRPRKNPRP ?
0.472

I am curious: what shrunken log2 fold change value has been reported for RRIRQRPPRLPRPRPRPSYWPRP ?
-0.0858

I am curious: what shrunken log2 fold change value has been reported for RRIRGRPPRLPRPRPRPIFIPRP ?
-0.0812

I am curious: what shrunken log2 fold change value has been reported for RRIRVRPPRLPRPRPRPQHMPRP ?
-0.23

I am curious: what shrunken log2 fold change value has been reported for RRIRTRPPRLPRPRPRPRITPRP ?
-0.474

More entries:
I am curious: what shrunken log2 fold change value has been reported for RRIRARPPRLPRPRPRPMKNPRP ?
0.0488

I am curious: what shrunken log2 fold change value has been reported for RRIRHRPPRLPRPRPRPGEDPRP ?
0.0147

I am curious: what shrunken log2 fold change value has been reported for RRIRHRPPRLPRPRPRPFYIPRP ?
-1.15

I am curious: what shrunken log2 fold change value has been reported for RRIRTRPPRLPRPRPRPVQVPRP ?
0.0995

###

Test system: Escherichia coli TOP10
Assay explanation: shrunken log2 fold change of peptide-encoding DNA abundance (4.5 h post-induction vs induction); higher = less antimicrobial activity (less host growth inhibition)
Condition set: time post-induction: 4.5 h; library: site-saturation at positions 5, 18, 19, 20
Quantity: shrunken log2 fold change
Keep it simple and answer with nothing but the number.

// below: answered sequences
I am curious: what shrunken log2 fold change value has been reported for RRIRYRPPRLPRPRPRPEHHPRP ?
-0.646

I am curious: what shrunken log2 fold change value has been reported for RRIRGRPPRLPRPRPRPWADPRP ?
0.142

I am curious: what shrunken log2 fold change value has been reported for RRIRTRPPRLPRPRPRPNNRPRP ?
-0.754

I am curious: what shrunken log2 fold change value has been reported for RRIRERPPRLPRPRPRPDAQPRP ?
0.154

I am curious: what shrunken log2 fold change value has been reported for RRIRQRPPRLPRPRPRPIRWPRP ?
-0.0554

I am curious: what shrunken log2 fold change value has been reported for RRIRQRPPRLPRPRPRPKVLPRP ?
0.0378

I am curious: what shrunken log2 fold change value has been reported for RRIRMRPPRLPRPRPRPDRVPRP ?
0.0719

I am curious: what shrunken log2 fold change value has been reported for RRIRPRPPRLPRPRPRPCESPRP ?
0.183

I am curious: what shrunken log2 fold change value has been reported for RRIRLRPPRLPRPRPRPYCCPRP ?
-1.03

I am curious: what shrunken log2 fold change value has been reported for RRIRGRPPRLPRPRPRPRNNPRP ?
0.346

More entries:
I am curious: what shrunken log2 fold change value has been reported for RRIRMRPPRLPRPRPRPFYPPRP ?
-0.401

###

Tested on: Escherichia coli TOP10;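 also: peptides expressed intracellularly from a pBAD plasmid library in pooled LB shake-flask culture, induced with 0.3% L-arabinose, DNA abundance read by NGS, three biological replicates, DESeq2 with apeglm shrinkage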
Assay explanation: shrunken log2 fold change of peptide-encoding DNA abundance (4.5 h post-induction vs induction); higher = less antimicrobial activity (less host growth inhibition)
Condition set: time post-induction: 4.5 h; library: site-saturation at positions 5, 18, 19, 20
Quantity: shrunken log2 fold change
Keep it simple and answer with nothing but the number.

// below: answered sequences
What value of shrunken log2 fold change on Escherichia coli TOP10 does RRIRQRPPRLPRPRPRPGCVPRP have?
0.269

What value of shrunken log2 fold change on Escherichia coli TOP10 does RRIRQRPPRLPRPRPRPMHHPRP have?
-0.288

What value of shrunken log2 fold change on Escherichia coli TOP10 does RRIRHRPPRLPRPRPRPYNRPRP have?
-0.0244

More entries:
What value of shrunken log2 fold change on Escherichia coli TOP10 does RRIRHRPPRLPRPRPRPEQAPRP have?
-0.0477

What value of shrunken log2 fold change on Escherichia coli TOP10 does RRIRERPPRLPRPRPRPKLYPRP have?
-0.432

What value of shrunken log2 fold change on Escherichia coli TOP10 does RRIRDRPPRLPRPRPRPHWPPRP have?
0.197

What value of shrunken log2 fold change on Escherichia coli TOP10 does RRIRQRPPRLPRPRPRPSGIPRP have?
0.144

What value of shrunken log2 fold change on Escherichia coli TOP10 does RRIRMRPPRLPRPRPRPTQDPRP have?
1.24

What value of shrunken log2 fold change on Escherichia coli TOP10 does RRIRARPPRLPRPRPRPFMFPRP have?
0.189

What value of shrunken log2 fold change on Escherichia coli TOP10 does RRIRDRPPRLPRPRPRPWNYPRP have?
-0.0121

What value of shrunken log2 fold change on Escherichia coli TOP10 does RRIRIRPPRLPRPRPRPASFPRP have?
-0.167

What value of shrunken log2 fold change on Escherichia coli TOP10 does RRIRLRPPRLPRPRPRPVANPRP have?
-0.0731

What value of shrunken log2 fold change on Escherichia coli TOP10 does RRIRRRPPRLPRPRPRPTHDPRP have?
0.89

What value of shrunken log2 fold change on Escherichia coli TOP10 does RRIRYRPPRLPRPRPRPTALPRP have?
-0.0277

What value of shrunken log2 fold change on Escherichia coli TOP10 does RRIRQRPPRLPRPRPRPKLQPRP have?
1.59

What value of shrunken log2 fold change on Escherichia coli TOP10 does RRIRWRPPRLPRPRPRPQLIPRP have?
-0.153

What value of shrunken log2 fold change on Escherichia coli TOP10 does RRIRSRPPRLPRPRPRPGILPRP have?
-0.0441
